Test system: Escherichia coli TOP10
Test: shrunken log2 fold change of peptide-encoding DNA abundance (4.5 h post-induction vs induction); higher = less antimicrobial activity (less host growth inhibition)
Conditions: time post-induction: 4.5 h; library: site-saturation at positions 5, 18, 19, 20
Quantity measured: shrunken log2 fold change

// known answers, use as guide
Inquiry: Complete the entry with shrunken log2 fold change for RRIRFRPPRLPRPRPRPKIHPRP
Reply text: -0.557

Inquiry: Complete the entry with shrunken log2 fold change for RRIRMRPPRLPRPRPRPMFEPRP
Reply text: 0.155

Inquiry: Complete the entry with shrunken log2 fold change for RRIRARPPRLPRPRPRPRMIPRP
Reply text: 0.219

For every listed record, write down its shrunken log2 fold change.
1. RRIRIRPPRLPRPRPRPDPTPRP
2. RRIRWRPPRLPRPRPRPVSAPRP
3. RRIRSRPPRLPRPRPRPAIKPRP
4. RRIRMRPPRLPRPRPRPCFAPRP

Reply text:
-0.0575
0.316
-0.352
0.431

For every listed record, write down its shrunken log2 fold change.
1. RRIRVRPPRLPRPRPRPKKNPRP
2. RRIRNRPPRLPRPRPRPQLPPRP

Reply text:
[0.28, -0.352]

For every listed record, write down its shrunken log2 fold change.
1. RRIRVRPPRLPRPRPRPDMHPRP
2. RRIRWRPPRLPRPRPRPGMLPRP
3. RRIRWRPPRLPRPRPRPKLSPRP

Reply text:
1: -0.107; 2: -0.11; 3: -0.0389

* * *

Test system: Escherichia coli TOP10
Experiment: shrunken log2 fold change of peptide-encoding DNA abundance (4.5 h post-induction vs induction); higher = less antimicrobial activity (less host growth inhibition)
Settings: time post-induction: 4.5 h; library: site-saturation at positions 5, 18, 19, 20
The threshold is inclusive: shrunken log2 fold change of exactly 0.03 counts as Yes; values below receive No.

Inquiry: State whether the measured shrunken log2 fold change reaches 0.03, counting equality as reaching it, for RRIRARPPRLPRPRPRPVMHPRP
Reply text: Yes

Inquiry: State whether the measured shrunken log2 fold change reaches 0.03, counting equality as reaching it, for RRIRARPPRLPRPRPRPERHPRP
Reply text: Yes

Inquiry: State whether the measured shrunken log2 fold change reaches 0.03, counting equality as reaching it, for RRIRMRPPRLPRPRPRPQSSPRP
Reply text: No

Others:
Inquiry: State whether the measured shrunken log2 fold change reaches 0.03, counting equality as reaching it, for RRIRIRPPRLPRPRPRPFWPPRP
Reply text: No

Inquiry: State whether the measured shrunken log2 fold change reaches 0.03, counting equality as reaching it, for RRIRDRPPRLPRPRPRPNRSPRP
Reply text: Yes

Inquiry: State whether the measured shrunken log2 fold change reaches 0.03, counting equality as reaching it, for RRIRTRPPRLPRPRPRPMSDPRP
Reply text: No

Inquiry: State whether the measured shrunken log2 fold change reaches 0.03, counting equality as reaching it, for RRIRDRPPRLPRPRPRPKAFPRP
Reply text: No

Inquiry: State whether the measured shrunken log2 fold change reaches 0.03, counting equality as reaching it, for RRIRYRPPRLPRPRPRPLNNPRP
Reply text: No

Inquiry: State whether the measured shrunken log2 fold change reaches 0.03, counting equality as reaching it, for RRIRLRPPRLPRPRPRPEYMPRP
Reply text: No

Inquiry: State whether the measured shrunken log2 fold change reaches 0.03, counting equality as reaching it, for RRIRHRPPRLPRPRPRPYYKPRP
Reply text: No

Inquiry: State whether the measured shrunken log2 fold change reaches 0.03, counting equality as reaching it, for RRIRIRPPRLPRPRPRPWCIPRP
Reply text: No

Inquiry: State whether the measured shrunken log2 fold change reaches 0.03, counting equality as reaching it, for RRIRDRPPRLPRPRPRPGREPRP
Reply text: Yes

Inquiry: State whether the measured shrunken log2 fold change reaches 0.03, counting equality as reaching it, for RRIRERPPRLPRPRPRPTMRPRP
Reply text: Yes

Inquiry: State whether the measured shrunken log2 fold change reaches 0.03, counting equality as reaching it, for RRIRKRPPRLPRPRPRPMKKPRP
Reply text: Yes

Inquiry: State whether the measured shrunken log2 fold change reaches 0.03, counting equality as reaching it, for RRIRDRPPRLPRPRPRPSQVPRP
Reply text: No

Inquiry: State whether the measured shrunken log2 fold change reaches 0.03, counting equality as reaching it, for RRIRKRPPRLPRPRPRPTPKPRP
Reply text: Yes

Inquiry: State whether the measured shrunken log2 fold change reaches 0.03, counting equality as reaching it, for RRIRCRPPRLPRPRPRPQHLPRP
Reply text: No

Inquiry: State whether the measured shrunken log2 fold change reaches 0.03, counting equality as reaching it, for RRIRYRPPRLPRPRPRPGRHPRP
Reply text: No

Inquiry: State whether the measured shrunken log2 fold change reaches 0.03, counting equality as reaching it, for RRIRQRPPRLPRPRPRPFYPPRP
Reply text: Yes

Inquiry: State whether the measured shrunken log2 fold change reaches 0.03, counting equality as reaching it, for RRIRSRPPRLPRPRPRPWIQPRP
Reply text: No

Inquiry: State whether the measured shrunken log2 fold change reaches 0.03, counting equality as reaching it, for RRIRFRPPRLPRPRPRPSENPRP
Reply text: No

Inquiry: State whether the measured shrunken log2 fold change reaches 0.03, counting equality as reaching it, for RRIRRRPPRLPRPRPRPKIYPRP
Reply text: No

Inquiry: State whether the measured shrunken log2 fold change reaches 0.03, counting equality as reaching it, for RRIRWRPPRLPRPRPRPPQSPRP
Reply text: Yes

Inquiry: State whether the measured shrunken log2 fold change reaches 0.03, counting equality as reaching it, for RRIRYRPPRLPRPRPRPIWHPRP
Reply text: No

Inquiry: State whether the measured shrunken log2 fold change reaches 0.03, counting equality as reaching it, for RRIRHRPPRLPRPRPRPLYTPRP
Reply text: No

* * *

Tested on: Escherichia coli TOP10
Assay: shrunken log2 fold change of peptide-encoding DNA abundance (4.5 h post-induction vs induction); higher = less antimicrobial activity (less host growth inhibition)
Details: time post-induction: 4.5 h; library: site-saturation at positions 5, 18, 19, 20
Answer each item with its documented shrunken log2 fold change.
Numbers only.

// known answers, use as guide
Inquiry: Complete the entry with shrunken log2 fold change for RRIRDRPPRLPRPRPRPPCVPRP
Reply text: 0.152

Inquiry: Complete the entry with shrunken log2 fold change for RRIRGRPPRLPRPRPRPFHPPRP
Reply text: -0.124

Inquiry: Complete the entry with shrunken log2 fold change for RRIRIRPPRLPRPRPRPYSHPRP
Reply text: -0.941

For every listed record, write down its shrunken log2 fold change.
1. RRIRTRPPRLPRPRPRPTSNPRP
2. RRIRGRPPRLPRPRPRPFKAPRP
3. RRIRTRPPRLPRPRPRPCKVPRP
4. RRIRTRPPRLPRPRPRPLGGPRP
5. RRIRERPPRLPRPRPRPSTKPRP

Reply text:
1. -0.43
2. 0.2
3. -0.233
4. 0.137
5. -0.232

* * *

Test system: Escherichia coli TOP10
Experiment: shrunken log2 fold change of peptide-encoding DNA abundance (4.5 h post-induction vs induction); higher = less antimicrobial activity (less host growth inhibition)
Settings: time post-induction: 4.5 h; library: site-saturation at positions 5, 18, 19, 20
The threshold is inclusive: shrunken log2 fold change of exactly 0.08 counts as TRUE; values below receive FALSE.

Inquiry: State whether the measured shrunken log2 fold change reaches 0.08, counting equality as reaching it, for RRIRKRPPRLPRPRPRPSPSPRP
Reply text: TRUE

Inquiry: State whether the measured shrunken log2 fold change reaches 0.08, counting equality as reaching it, for RRIRWRPPRLPRPRPRPILAPRP
Reply text: TRUE

Inquiry: State whether the measured shrunken log2 fold change reaches 0.08, counting equality as reaching it, for RRIRNRPPRLPRPRPRPTKEPRP
Reply text: FALSE

Others:
Inquiry: State whether the measured shrunken log2 fold change reaches 0.08, counting equality as reaching it, for RRIRARPPRLPRPRPRPFLKPRP
Reply text: FALSE

Inquiry: State whether the measured shrunken log2 fold change reaches 0.08, counting equality as reaching it, for RRIRRRPPRLPRPRPRPQCWPRP
Reply text: TRUE

Inquiry: State whether the measured shrunken log2 fold change reaches 0.08, counting equality as reaching it, for RRIRCRPPRLPRPRPRPFENPRP
Reply text: FALSE

* * *

Tested on: Escherichia coli TOP10;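 also: peptides expressed intracellularly from a pBAD plasmid library in pooled LB shake-flask culture, induced with 0.3% L-arabinose, DNA abundance read by NGS, three biological replicates, DESeq2 with apeglm shrinkage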
Assay: shrunken log2 fold change of peptide-encoding DNA abundance (4.5 h post-induction vs induction); higher = less antimicrobial activity (less host growth inhibition)
Conditions: time post-induction: 4.5 h; library: site-saturation at positions 5, 18, 19, 20
Answer each item with its documented shrunken log2 fold change.
Give bare numbers.

Inquiry: Retrieve shrunken log2 fold change on Escherichia coli TOP10; query RRIRMRPPRLPRPRPRPNVMPRP
Reply text: -0.108

For every listed record, write down its shrunken log2 fold change.
1. RRIRYRPPRLPRPRPRPDIWPRP
2. RRIRYRPPRLPRPRPRPNPPPRP
3. RRIRRRPPRLPRPRPRPDWFPRP
4. RRIRRRPPRLPRPRPRPDGGPRP

Reply text:
-0.00585
0.0395
0.276
0.149

For every listed record, write down its shrunken log2 fold change.
1. RRIRGRPPRLPRPRPRPGKKPRP
2. RRIRHRPPRLPRPRPRPTCYPRP
3. RRIRIRPPRLPRPRPRPRYYPRP

Reply text:
-0.0917
-0.272
-0.372
